Data origin, for the record: ChEMBL document CHEMBL1201862

Catalogue of compounds with associated GI50
- Tested on: 786-0
- ASSAY_DETAILS: NCI tumour cell line growth inhibition, 48 h
Active and inactive are the calls of the source. Rule as the data show it: active = GI50 up to about 1.1 µM and inactive = higher.

// known answers, use as guide
| COMPOUND | RESULT |
| --- | --- |
| CN(C)c1ccc(C(C#N)N2CCCN(C(C#N)c3ccc(N(C)C)cc3)C2c2ccc(N(C)C)cc2)cc1 (centres undefined) | > 100 µM (inactive) |
| O=C1c2ccccc2-c2c1c(-c1ccccc1)c1n2C2(C(=O)c3ccccc3C2=O)C2C(=O)N(c3ccccc3)C(=O)C12 (centres undefined) | 23.4 µM (inactive) |
| CCc1nnc2sc(-c3ccc(-c4ccccc4[N+](=O)[O-])o3)nn12 | 54.8 µM (inactive) |

Give the reported value of GI50 for this record: Nc1c(C(=O)Nc2ccccc2O)[n+]([O-])c2ccccc2[n+]1[O-]
> 100 µM (inactive)

====

- System: T47D
- ASSAY_DETAILS: NCI tumour cell line growth inhibition, 48 h
Activity calls are given as the source filed them. Cut-off read from the data, not from the text of the source: active = GI50 up to about 1.1 µM and inactive = higher.
TEST_READOUT: GI50

Use the examples below as a reference point.
| COMPOUND | TARGET_OR_SYSTEM | GI50 |
| --- | --- | --- |
| COc1cc(OC)cc(OCc2ccc3nc(-c4ccccc4)c(Cl)nc3c2)c1 | T47D | 24.7 µM (inactive) |
| O=c1cc(-c2ccccc2)[nH]c2ccc(N3CCCCC3)cc12 | T47D | > 100 µM (inactive) |
| COc1cc(COC(=O)N2CSCC2C(=O)O)c([N+](=O)[O-])cc1OC (stereo not drawn) | T47D | > 100 µM (inactive) |
| COc1ccc2nc(NC(=O)/C(C#N)=C/c3ccccc3)sc2c1 | T47D | 30.1 µM (inactive) |
| CO[C@]12S[C@@H]3CCCC[C@@]31C(C)(C)C(=O)N2c1ccccc1 | T47D | 30.7 µM (inactive) |
| CSc1c(C#N)c(S)[nH]c(=O)c1C#N | T47D | 24.9 µM (inactive) |
| Cn1c(COC(=O)NC2CCCCC2)c(COC(=O)NC2CCCCC2)c2ccc3cc(C=O)ccc3c21 | T47D | > 100 µM (inactive) |

Output measured GI50 for this item: Cc1ccc(S(=O)(=O)Oc2coc(CO)cc2=O)cc1
13.3 µM (inactive)

====

# key: entry, value: GI50
- Tested on: NCI/ADR-RES
- ASSAY_DETAILS: NCI tumour cell line growth inhibition, 48 h
Activity calls are given as the source filed them. Rule as the data show it: active = GI50 up to about 1.1 µM and inactive = higher.

Observe how each entry below is paired with its result.
| COMPOUND | RESULT |
| --- | --- |
| c1cncc(C2(c3cc4ccccc4[nH]3)COCO2)c1 (stereo not drawn) | > 100 µM (inactive) |
| O=C(O)CC1C(=O)OC2C3COC(=O)c4cc(O)c(O)c(O)c4-c4c(cc(O)c(O)c4O)C(=O)OC2C(OC(=O)c2cc(O)c(O)c4c2C1C(O)C(=O)O4)C(OC(=O)c1cc(O)c(O)c(O)c1)O3 (stereo not drawn) | 16.7 µM (inactive) |

Attention now turns to another entry.
Consider the compound Cc1n[nH]c(=O)n1C1CC1 . State its measured GI50.
> 100 µM (inactive)

====

GI50 values for the compounds below.
- Test system: EKVX
- ASSAY_DETAILS: NCI tumour cell line growth inhibition, 48 h
Active and inactive are the calls of the source. Rule as the data show it: active = GI50 up to about 1.1 µM and inactive = higher.

Please review the following examples before continuing.
| COMPOUND | TARGET_OR_SYSTEM | RESULT |
| --- | --- | --- |
| O=C1Nc2ccc(Cl)c(I)c2C1=O | EKVX | 5.62 µM (inactive) |
| CC1=NN(C(=O)CC(=O)Nc2cccc(Cl)c2)C(=O)C1/N=N\c1ccc(S(=O)(=O)c2ccc(/N=N/C3C(=O)N(C(=O)CC(=O)Nc4cccc(Cl)c4)N=C3C)cc2)cc1 (configuration not stated) | EKVX | > 100 µM (inactive) |
| C/C1=C\CC[C@@]2(C)O[C@@H]2C[C@@H]2[C@H](C/C(C)=C/CC1)OC(=O)[C@]21CO1 | EKVX | > 100 µM (inactive) |
| N=C(N)SCCc1ccccn1 | EKVX | > 100 µM (inactive) |
| CCOC(=O)C1(C)CCc2sc(N)c(C#N)c21 (configuration not stated) | EKVX | > 100 µM (inactive) |

Please report the measured GI50 for COc1cc2c(cc1OCCCN1CCN(C)CC1)N=C[C@@H]1CCCN1C2=O
2.03 µM (inactive)

Specify measured GI50 for COC(=O)NN=C1C(C)(C)C(=NNC(=O)OC)C1(C)C .
> 100 µM (inactive)

Give reported GI50 value for O=C1c2ccccc2S[C@@H](O)[C@@H]2CCCN12
> 100 µM (inactive)

Read off the recorded GI50 for O=C(O)CCC(NC(=O)c1ccc(Nc2nc3ccccc3nc2-c2cccs2)cc1)C(=O)O (configuration not stated)
> 100 µM (inactive)

Please supply the value of reported GI50 for the item CC(C)C(Sc1nc(-c2ccccc2)c(-c2ccccc2)[nH]1)C(=O)NNC(=S)Nc1ccccc1 (configuration not stated)
23.8 µM (inactive)

Consider the compound CC1CCC2(O)C3(C)CC4(O)OC2(C1O)C1(O)C3(O)C(OC(=O)c2ccc[nH]2)C(O)(C(C)C)C41C (configuration not stated) and give its recorded GI50.
> 100 µM (inactive)

====

- Tested on: LOX IMVI
- ASSAY_DETAILS: NCI tumour cell line growth inhibition, 48 h
The source made the active and inactive calls. No stated cut-off is given here; in the data, active = GI50 up to about 1.1 µM and inactive = higher.
Hello, when you answer, please use one of the following outcomes: active, inactive

| COMPOUND | LABEL_CLASS |
| --- | --- |
| O=P(O)(O)CN1CCNCCN(CP(=O)(O)O)CCNCC1 | inactive |
| COc1ccc2nc(NC(=O)/C(C#N)=C/c3ccccc3)sc2c1 | inactive |
| CC(C)(C)C1CCC2c3c([nH]c4ccccc34)C3C(=O)N(c4ccc([N+](=O)[O-])cc4)C(=O)C3C2C1 (stereo unspecified) | inactive |
| CCOC(=O)/C(=C\c1ccc(CO)o1)P(=O)(OCC)OCC | inactive |
| CCC1CC2C(=O)N(c3ccccc3)C(=O)C2c2[nH]c3ccccc3c21 (stereo unspecified) | inactive |
| COC(=O)CCC12CCC(=O)C1[C@@H](C(=O)OC)C[C@H]2C(=O)OC (stereo partly specified) | inactive |

I'd appreciate the recorded outcome for CCN=C=NCCCN(C)C from this test.
inactive

Which outcome did this test record for the compound CC(=O)O[C@H]1C(=O)O[C@@H]2C[C@H]3C(C)=CC(=O)[C@@H](O)[C@]3(C)[C@H]3[C@@]4(O)OC[C@]32[C@@H]1[C@@H](C)[C@H]4O ?
active

Give the logged outcome of this assay for the following compound: CCCCCCCCCCCCCCCC1(OC)C[N+](C)(C)CCO1 (stereo unspecified)
inactive

Identify the outcome logged in this assay for the compound shown: CCOP(=O)(CCC(O)CNc1nc(N)nc(Cl)c1/N=N/c1ccc(Cl)cc1)OCC (stereo unspecified)
inactive

// outcome(item) with item = O=C(CSc1nc2ccccc2c(=O)n1-c1ccccc1)N/N=C1\C(=O)Nc2ccc(F)cc21
inactive

====

- Tested on: DU-145
- ASSAY_DETAILS: NCI tumour cell line growth inhibition, 48 h
The source made the active and inactive calls. Cut-off read from the data, not from the text of the source: active = GI50 up to about 1.1 µM and inactive = higher.
Hi there, use one of these labels in your reply, thanks! Y = active, N = inactive

Example entries and their recorded answers appear below.
| MOLECULE | TARGET_OR_SYSTEM | LABEL_CLASS |
| --- | --- | --- |
| NCCNS(=O)(=O)c1ccc(N)cc1 | DU-145 | N |
| O=C(O)CCO/N=C1/C(=C2/C(=O)Nc3ccccc32)Nc2ccccc21 | DU-145 | N |
| O=c1[nH]c(=O)n(C2CC(O)C(CO)O2)cc1OCCc1ccccc1 (centres undefined) | DU-145 | N |
| Cc1c(/N=N/c2ccccc2)c(-c2ccccc2)n(C2OC(CO)C(O)C(O)C2O)c(=S)c1C#N (centres undefined) | DU-145 | N |

Assay outcome for COc1ccc2c(c1)[C@@H](NC(C)=O)CCc1cc(OC)c(OC)c(OC)c1-2 : what was it?
Y

Hi, do you know how CC(=O)c1c(O)cc(O)c(-c2c(C)cc(O)c3c2C(=O)c2cccc(O)c2C3=O)c1O came out in this test?
N

Each molecule tested received a call. Report the one for Clc1cc2nn(C3CCCCO3)nc2cc1Cl (centres undefined) .
N

Recorded test call requested for N#Cc1cnn2c1n[n+]([O-])c1ccc(Cl)cc12
N

How did this test come out for C/C(=N\NC(N)=S)c1nc2cccnc2[nH]1 ?
N

Name the outcome recorded for CS(=O)(=O)OCCN(CCOS(C)(=O)=O)c1ccc(/C=N/c2ccc3oc(=O)ccc3c2)cc1 in the assay.
Y

State the result this test recorded for OCC(CCc1c[nH]c2ccccc12)c1c[nH]c2ccccc12 (centres undefined) .
N

Tell me the recorded outcome of this test for O=c1cc(NNc2cccc(F)c2)[nH]c(=O)[nH]1 .
N
